Molecular target: T1, IL10Rα/IL2Rγ receptor (human) (UniProt Q13651)
T1 sequence (looked up) 1: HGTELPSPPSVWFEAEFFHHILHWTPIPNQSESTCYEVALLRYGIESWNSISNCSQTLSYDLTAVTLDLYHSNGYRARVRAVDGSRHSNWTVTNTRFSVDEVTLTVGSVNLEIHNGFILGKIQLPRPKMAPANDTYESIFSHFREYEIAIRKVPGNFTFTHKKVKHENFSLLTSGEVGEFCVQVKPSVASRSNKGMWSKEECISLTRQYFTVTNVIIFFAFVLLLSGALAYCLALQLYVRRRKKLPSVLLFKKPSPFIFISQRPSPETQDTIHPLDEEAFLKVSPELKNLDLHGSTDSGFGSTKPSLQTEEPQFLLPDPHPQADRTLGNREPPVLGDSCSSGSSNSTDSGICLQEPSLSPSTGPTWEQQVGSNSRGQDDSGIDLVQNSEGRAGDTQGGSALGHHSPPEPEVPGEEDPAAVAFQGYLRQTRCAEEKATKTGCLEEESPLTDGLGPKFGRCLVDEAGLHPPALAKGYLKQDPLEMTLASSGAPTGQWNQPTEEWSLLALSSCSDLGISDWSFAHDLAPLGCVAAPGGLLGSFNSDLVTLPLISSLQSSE
T1 sequence (looked up) 2: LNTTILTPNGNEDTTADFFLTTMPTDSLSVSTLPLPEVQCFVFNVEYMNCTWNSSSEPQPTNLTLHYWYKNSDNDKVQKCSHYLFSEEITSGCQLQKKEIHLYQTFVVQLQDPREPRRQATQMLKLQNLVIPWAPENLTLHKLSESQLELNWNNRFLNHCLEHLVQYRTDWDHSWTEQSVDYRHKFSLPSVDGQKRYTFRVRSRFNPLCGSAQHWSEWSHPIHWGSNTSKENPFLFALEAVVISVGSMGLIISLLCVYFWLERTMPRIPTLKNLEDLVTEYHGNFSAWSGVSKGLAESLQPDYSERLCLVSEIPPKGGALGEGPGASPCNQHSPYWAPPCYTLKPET
Experiment: cell-based or functional assay
Listed next: entries and their corresponding IFNγ secretion, CD8 T cells, at 0.01 µM.
Report only the number, with the unit pg/mL understood.

binder	units.text	IFNγ secretion, CD8 T cells, at 0.01 µM
hIL10Ra_VHH14 - hIL2Rg_VHH19, linker GGGSGGGS, tag his (bispecific antibody, not shown: small tags and cut ends) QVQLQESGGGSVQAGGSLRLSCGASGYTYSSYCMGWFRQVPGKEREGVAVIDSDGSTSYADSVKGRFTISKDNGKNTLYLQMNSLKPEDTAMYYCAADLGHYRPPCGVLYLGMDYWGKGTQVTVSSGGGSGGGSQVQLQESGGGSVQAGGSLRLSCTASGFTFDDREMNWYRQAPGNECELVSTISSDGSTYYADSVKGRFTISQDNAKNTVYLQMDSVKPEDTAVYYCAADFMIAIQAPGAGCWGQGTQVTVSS	pg/mL	102000

**Query** Would you kindly share the measured IFNγ secretion, CD8 T cells, at 0.01 µM for hIL10Ra_VHH14 - hIL2Rg_VHH19, linker GGGS, tag Fc (bispecific antibody, not shown: a dimerising Fc or GST) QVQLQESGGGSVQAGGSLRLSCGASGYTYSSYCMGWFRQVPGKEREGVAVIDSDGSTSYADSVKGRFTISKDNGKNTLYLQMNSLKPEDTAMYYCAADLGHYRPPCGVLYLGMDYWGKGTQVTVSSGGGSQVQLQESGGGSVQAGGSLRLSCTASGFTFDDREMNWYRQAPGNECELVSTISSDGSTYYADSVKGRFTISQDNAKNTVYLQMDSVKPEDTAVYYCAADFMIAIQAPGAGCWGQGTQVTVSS ?
**Result** 131000

**Query** Would you kindly share the measured IFNγ secretion, CD8 T cells, at 0.01 µM for hIL10Ra_VHH14 - hIL2Rg_VHH19, linker GGGS, tag his (bispecific antibody, not shown: small tags and cut ends) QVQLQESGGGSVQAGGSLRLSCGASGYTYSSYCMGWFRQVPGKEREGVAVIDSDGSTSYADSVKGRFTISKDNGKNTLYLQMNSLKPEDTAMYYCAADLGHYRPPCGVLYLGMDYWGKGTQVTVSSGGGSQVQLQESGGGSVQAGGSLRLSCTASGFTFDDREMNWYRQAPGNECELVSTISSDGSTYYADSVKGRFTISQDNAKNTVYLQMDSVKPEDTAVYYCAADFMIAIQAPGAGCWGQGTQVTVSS ?
**Result** 107000

**Query** Would you kindly share the measured IFNγ secretion, CD8 T cells, at 0.01 µM for hIL10Ra_VHH14 - hIL2Rg_VHH19, linker GGSGGS, tag his (bispecific antibody, not shown: small tags and cut ends) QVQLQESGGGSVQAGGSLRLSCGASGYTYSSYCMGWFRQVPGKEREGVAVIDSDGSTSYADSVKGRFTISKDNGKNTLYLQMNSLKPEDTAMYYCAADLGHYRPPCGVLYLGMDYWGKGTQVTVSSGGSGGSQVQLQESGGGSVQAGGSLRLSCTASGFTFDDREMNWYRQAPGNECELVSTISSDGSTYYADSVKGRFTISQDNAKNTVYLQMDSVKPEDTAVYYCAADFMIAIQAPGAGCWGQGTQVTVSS ?
**Result** 117000

All values here come from patent US20250163162A1.
